Would you kindly list protein stability index for each of these variants?
B1: MYL5 (parent)
chain: DVAGNLDYKALSYVITHGEEKEE

Variants of: B1
Assay: protein stability index of a GFP-peptide fusion (GPS, HEK-293T) (PSI 1-6); higher = more stable;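 further: lentivirally expressed fusions sorted by FACS into six bins by GFP to DsRed ratio, PSI derived from sequencing read proportions per bin multiplied by bin number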
Settings: c terminus: native
Would you mind answering with just the numeric figure?

What protein stability index value was documented for this variant, DVAGNLDYKALSMVITHGEEKEE [Y13M] ?
2.08

Reported protein stability index for DVAFNLDYKALSYVITHGEEKEE [G4F] : what is it?
1.77

I would be grateful if you could share the reported protein stability index for DVYGNLDYKALSYVITHGEEKEE [A3Y] .
2.15

Fill in: protein stability index of DVAGNLDYKALSAVITHGEEKEE [Y13A] is ___
2.7

What value of measured protein stability index is listed for DVAGNLDYKALSYVITHGEEHEE [K21H] ?
1.6

Sample DVAGNLDPKALSYVITHGEEKEE [Y8P] — what was its protein stability index?
2.05

Find the recorded protein stability index belonging to DVAGNLDYKALSYVITHGERKEE [E20R] and report it.
2.46

Need protein stability index of DVAGNLDYKALSYVITHGEEKQE [E22Q] , thanks.
4.82

Name the reported protein stability index value associated with the variant DVAPNLDYKALSYVITHGEEKEE [G4P]
1.61

What protein stability index value was documented for this variant, DVAGNLDYKALSYVITNGEEKEE [H17N] ?
3.23

Which protein stability index is reported for this variant? DVAGNLDYKALSYVITHGEEKKE [E22K]
5.21

State the recorded protein stability index for this entry: DVAGNLDRKALSYVITHGEEKEE [Y8R]
1.75

Query (variant): DVAGNLDYKALSYVITHGEVKEE [E20V] ; field requested: protein stability index
1.27

Form field: reported protein stability index of DVAGNLDYKALNYVITHGEEKEE [S12N]
2.77

Form field: reported protein stability index of DVANNLDYKALSYVITHGEEKEE [G4N]
1.51

Look up protein stability index: DVAGNLVYKALSYVITHGEEKEE [D7V]
1.96

Entry DVLGNLDYKALSYVITHGEEKEE [A3L] : reported protein stability index = ?
2.31

I have this variant here, DTAGNLDYKALSYVITHGEEKEE [V2T] , and I need its recorded protein stability index.
2

Sample DVAGNLDYKALSYVITHGEEKET [E23T] — what was its protein stability index?
4.54

Any idea what protein stability index was measured for DVAGNLDYLALSYVITHGEEKEE [K9L] ?
2.75

Fill in the blank: the reported protein stability index of DVAGNLDYKALSYVITHGEEKEC [E23C] is ____.
4.24

Consider the variant shown here: DVAGNLDYKKLSYVITHGEEKEE [A10K] What is its recorded protein stability index?
3.21

Param item = DVAANLDYKALSYVITHGEEKEE [G4A] ; retrieve measured protein stability index.
2.02

Look up protein stability index for this variant: DVHGNLDYKALSYVITHGEEKEE [A3H]
1.8

// lookup protein stability index for DVAGNLNYKALSYVITHGEEKEE [D7N]
1.91
